Source of measurements: patent US11857560B2

Test: Cytotoxicity panel, HepG2
Conditions: human, HepG2 cells
The reader will find reported CC50 values listed item by item below.

Compound: C[C@@]1(F)C(O)[C@@H](CO)O[C@H]1n1ccc(=S)[nH]c1=O (stereo partly shown)
CC50: > 400 µM
//
Compound: CC(C)OC(=O)[C@H](C)NP(=O)(OC[C@H]1O[C@@H](n2ccc(=O)[nH]c2=S)[C@@H](O)C1O)Oc1ccccc1 (stereo partly shown)
CC50: > 400 µM
//
Compound: CC(C)OC(=O)[C@H](C)NP(=O)(OC[C@H]1O[C@@H](n2ccc(=O)[nH]c2=O)[C@](C)(O)C1O)Oc1ccccc1 (stereo partly shown)
CC50: 159 µM
//
Compound: CC(C)OC(=O)[C@H](C)NP(=O)(OC[C@@]1(N=[N+]=[N-])O[C@@H](n2ccc(=S)[nH]c2=O)[C@@H](O)C1O)Oc1ccccc1 (stereo partly shown)
CC50: > 400 µM
//
Compound: CC(C)OC(=O)[C@H](C)N[P@](=O)(OC[C@H]1O[C@@H](n2ccc(=O)[nH]c2=S)[C@](C)(O)C1O)Oc1ccccc1 (stereo partly shown)
CC50: > 400 µM
//
Compound: C[C@@]1(O)C(O)[C@@H](CO)O[C@H]1n1ccc(=O)[nH]c1=S (stereo partly shown)
CC50: > 400 µM
//
Compound: CC(C)OC(=O)[C@H](C)NP(=O)(OC[C@H]1O[C@@H](n2ccc(=O)[nH]c2=[Se])[C@](C)(O)C1O)Oc1ccccc1 (stereo partly shown)
CC50: > 400 µM
//
Compound: CC(C)OC(=O)[C@H](C)N[P@@](=O)(OC[C@H]1O[C@@H](n2ccc(=O)[nH]c2=O)[C@](C)(F)C1O)Oc1ccccc1 (stereo partly shown)
CC50: > 400 µM
//
Compound: CC(C)OC(=O)[C@H](C)N[P@](=O)(OC[C@H]1O[C@@H](n2ccc(=O)[nH]c2=O)[C@](C)(F)C1O)Oc1ccccc1 (stereo partly shown)
CC50: 365 µM
//
Compound: C[C@@]1(O)C(O)[C@@H](CO)O[C@H]1n1ccc(=S)[nH]c1=O (stereo partly shown)
CC50: > 400 µM
//
Compound: C[C@H](NP(=O)(O)OC[C@H]1O[C@@H](n2ccc(=O)[nH]c2=S)[C@](C)(O)C1O)C(=O)O (stereo partly shown)
CC50: > 400 µM
//
Compound: CC(C)OC(=O)[C@H](C)NP(=O)(OC[C@H]1O[C@@H](n2ccc(=O)[nH]c2=S)[C@](C)(O)C1O)Oc1ccccc1 (stereo partly shown)
CC50: > 400 µM
//
Compound: C#C[C@]1(COP(=O)(N[C@@H](C)C(=O)OC(C)C)Oc2ccccc2)O[C@@H](n2ccc(=O)[nH]c2=S)[C@@H](O)C1O (stereo partly shown)
CC50: > 400 µM

###

Tested on: Influenza A H1N1
Experiment: Antiviral activity, Influenza A H1N1
Assay type: cell-based
Conditions: Influenza A virus, H1N1, read-out: Influenza A H1N1 EC50

Molecule: Nc1ccn([C@@H]2O[C@H](CO)C(O)[C@@H]2F)c(=S)n1 (stereo partly shown)
EC50: > 100 µM

###

Tested on: Adenovirus
Assay: Adenovirus replication assay
Type: cell-based
Conditions: unidentified adenovirus
Metric name: EC50

Molecule: CC(C)OC(=O)[C@H](C)NP(=O)(OC[C@H]1O[C@@H](n2ccc(=O)[nH]c2=S)[C@](C)(O)C1O)Oc1ccccc1 (stereo partly shown)
Measured target: Adenovirus
Result: > 100 µM
